Below, each of the sequences is paired with its reported protein stability index value.
# Test system: Saccharomyces cerevisiae;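 further: PSI is a weighted mean of each variant's read distribution over the sorted stability bins, computed only for variants having over 10 reads in total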
# test-details: protein stability index of tFT-peptide fusion in deletion strain of DAS1 (PSI (0-1 scale)); higher = more stable (slower turnover)

chain: RLIQPLPVQFLG
protein stability index: 0.6
//
chain: LKILRQKMNHQNY
protein stability index: 0.705
//
chain: RLIKPLPVQFLN
protein stability index: 0.627
//
chain: LKILRQKMNRQN
protein stability index: 0.68
//
chain: PSLAASFWRVEG
protein stability index: 0.687
//
chain: LKILRRKMNHQN
protein stability index: 0.648
//
chain: ERGAVGGWRLVG
protein stability index: 0.675
//
chain: FSMRWTFRYWVNC
protein stability index: 0.508
//
chain: VRGAVGGWRSVG
protein stability index: 0.664
//
chain: LVVYLACVACIN
protein stability index: 0.041
//
chain: KKHTKGQKQKIN
protein stability index: 0.622
//
chain: LKILRQKMNHQQ
protein stability index: 0.691
//
chain: RLIQPLIVQFLN
protein stability index: 0.542
//
chain: FWMRWTFRYWVN
protein stability index: 0.379
//
chain: FSGRWTFRYWVN
protein stability index: 0.626
//
chain: LVVYLSCVACIE
protein stability index: 0.0184
//
chain: YSMRWTFRYWVN
protein stability index: 0.495
//
chain: LNVYLSCVACIN
protein stability index: 0.188
//
chain: PDKFNHLIKLLN
protein stability index: 0.622
//
chain: CTSCGYKFRTNNC
protein stability index: 0.673
//
chain: PDKRNHLIYLLN
protein stability index: 0.702
//
chain: ARWRVGLWRGASP
protein stability index: 0.672
//
chain: FSSRWTFRYWVN
protein stability index: 0.604
//
chain: KKHKKGQKQKINQ
protein stability index: 0.664
//
chain: RLIQPLPVQFLM
protein stability index: 0.595
//
chain: PFKRNHLIKLLN
protein stability index: 0.587
//
chain: VRGAVGGWRLVA
protein stability index: 0.677
//
chain: LVVYLSCVAAIN
protein stability index: 0.0388
//
chain: LKILRQCMNHQN
protein stability index: 0.686
//
chain: KKHKKGQKMKIN
protein stability index: 0.583
//
chain: VRGVVGGWRLVG
protein stability index: 0.679
//
chain: PNKRNHLIKLLN
protein stability index: 0.597
//
chain: VPGAVGGWRLVG
protein stability index: 0.667
//
chain: FSMRWTFYYWVN
protein stability index: 0.418
//
chain: PSLAAPFWRVVG
protein stability index: 0.696
//
chain: PSLAASFWRQVG
protein stability index: 0.653
//
chain: PSFAASFWRVVG
protein stability index: 0.703
//
chain: CQSCGYKFRTNN
protein stability index: 0.7
//
chain: LKILRQKCNHQN
protein stability index: 0.663
//
chain: PSLAASFWRTVG
protein stability index: 0.698
//
chain: FSMRWTFRYWVG
protein stability index: 0.476
